target: Protein kinase C gamma type (Homo sapiens) (UniProt P05129); conditions: at 1 µM;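 further: each value is an averaged percent inhibition of the enzyme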
Here the recorded inhibition is given for each entry.
Could you give the number and then its unit, please?

CC(C)c1ccc(-c2cc(-c3c[nH]nc3-c3ccccn3)ccn2)cc1 :: 1.42%

Given the compound CCCNc1cccc(-n2ncc3c(N/N=C/c4ccncc4)ncnc32)c1 and test system Protein kinase C gamma type (Homo sapiens) (UniProt P05129), the measured inhibition is 5.49%

Recorded inhibition for CNC(=O)c1sc(-n2cnc3cc(OC)c(OC)cc32)cc1OCc1ccccc1C(F)(F)F on Protein kinase C gamma type (Homo sapiens) (UniProt P05129) was -2.1%

Protein kinase C gamma type (Homo sapiens) (UniProt P05129) assay, compound c1cnn2ncc(-c3ccnc(NCCCN4CCOCC4)n3)c2c1 , recorded inhibition = 4.8%

The compound O=C(O[C@H]1CN[C@H](C#Cc2cc3ncnc(Nc4ccc5c(cnn5Cc5ccccc5)c4)c3s2)C1)N1CCOCC1 , tested on Protein kinase C gamma type (Homo sapiens) (UniProt P05129), showed inhibition of 1.11%

====

tested on: Platelet-derived growth factor receptor alpha (Homo sapiens), P16234 [D842V]; conditions: at 1 µM
Sequence (P16234 whole entry D842V): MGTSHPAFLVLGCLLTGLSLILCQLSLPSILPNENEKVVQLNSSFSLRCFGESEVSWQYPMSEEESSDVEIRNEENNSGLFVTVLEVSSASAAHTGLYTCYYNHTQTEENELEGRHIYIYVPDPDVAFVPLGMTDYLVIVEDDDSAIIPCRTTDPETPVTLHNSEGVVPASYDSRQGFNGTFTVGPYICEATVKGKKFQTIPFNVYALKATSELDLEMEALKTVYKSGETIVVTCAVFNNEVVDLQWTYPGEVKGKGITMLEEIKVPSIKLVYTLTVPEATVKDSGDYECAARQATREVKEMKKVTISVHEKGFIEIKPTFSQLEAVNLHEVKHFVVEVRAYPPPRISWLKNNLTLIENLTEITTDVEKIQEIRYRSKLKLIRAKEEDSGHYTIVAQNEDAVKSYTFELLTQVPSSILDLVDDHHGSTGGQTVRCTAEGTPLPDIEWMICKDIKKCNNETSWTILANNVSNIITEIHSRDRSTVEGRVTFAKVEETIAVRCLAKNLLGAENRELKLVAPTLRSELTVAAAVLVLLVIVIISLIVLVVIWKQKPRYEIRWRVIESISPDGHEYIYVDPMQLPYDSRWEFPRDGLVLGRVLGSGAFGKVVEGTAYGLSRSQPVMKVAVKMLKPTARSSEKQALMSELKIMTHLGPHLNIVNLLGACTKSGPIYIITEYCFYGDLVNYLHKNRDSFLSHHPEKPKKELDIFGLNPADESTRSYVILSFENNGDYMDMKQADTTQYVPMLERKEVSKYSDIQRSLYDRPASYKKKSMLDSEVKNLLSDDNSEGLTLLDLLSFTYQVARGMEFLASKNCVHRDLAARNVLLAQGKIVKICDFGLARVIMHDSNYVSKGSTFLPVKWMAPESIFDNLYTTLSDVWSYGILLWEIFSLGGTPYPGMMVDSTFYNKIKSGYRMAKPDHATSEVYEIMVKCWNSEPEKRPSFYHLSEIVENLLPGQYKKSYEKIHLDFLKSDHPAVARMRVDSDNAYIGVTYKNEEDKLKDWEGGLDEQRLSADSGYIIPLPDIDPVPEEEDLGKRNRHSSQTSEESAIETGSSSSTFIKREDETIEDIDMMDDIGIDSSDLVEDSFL
inhibition by entry:
Write down the numeric answer in % and omit the unit.

Cc1ccc(-c2cc3c(NC(=O)C4CC4)ncnc3o2)cc1 :: 29.8
O=C(O[C@H]1CN[C@H](C#Cc2cc3ncnc(Nc4ccc(OCc5cccc(F)c5)c(Cl)c4)c3s2)C1)N1CCOCC1 :: 4.82

# next compound below
Kindly note the recorded inhibition for c1cnn2ncc(-c3ccnc(NCCCN4CCOCC4)n3)c2c1 , which is 3.59

====

target: Calcium/calmodulin-dependent protein kinase type II subunit delta (Homo sapiens) (UniProt Q13557); conditions: at 0.1 µM;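 further: percent inhibition values are means, taken from the GSK PKIS kinase profiling set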
Sequence (Q13557 whole entry): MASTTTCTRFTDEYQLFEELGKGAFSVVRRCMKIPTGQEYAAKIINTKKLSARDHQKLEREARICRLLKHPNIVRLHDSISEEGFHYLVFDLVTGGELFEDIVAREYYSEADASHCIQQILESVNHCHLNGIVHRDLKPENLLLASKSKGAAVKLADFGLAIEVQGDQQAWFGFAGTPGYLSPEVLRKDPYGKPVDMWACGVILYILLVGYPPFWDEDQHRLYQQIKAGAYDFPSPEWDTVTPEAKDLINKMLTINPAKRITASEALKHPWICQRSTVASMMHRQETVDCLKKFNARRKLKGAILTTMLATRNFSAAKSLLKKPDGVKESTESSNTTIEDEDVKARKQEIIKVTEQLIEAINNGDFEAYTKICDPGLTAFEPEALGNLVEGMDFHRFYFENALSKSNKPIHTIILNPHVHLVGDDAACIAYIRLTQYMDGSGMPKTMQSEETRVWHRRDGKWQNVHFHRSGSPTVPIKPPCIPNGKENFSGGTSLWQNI
VALUE TYPE: inhibition (%)
// units = %; emit number, no label

Some compounds with known inhibition results, for comparison:
COc1cc(N2CCN(C(C)C)CC2)ccc1Nc1nc(Nc2cccc3ncccc23)c2cc[nH]c2n1 :: -0.04
COc1cccc(Nc2nccc(-c3cnn4ncccc34)n2)c1 :: 6.9
COC(=O)Nc1nc2cc(Oc3ccc(NC(=O)Nc4ccccc4)cc3)ccc2[nH]1 :: 1.6

Notebook: N#Cc1ccc2c(-c3ccnc(NC4CC4)n3)c(-c3ccc(F)cc3)nn2c1 , inhibition read as 0.13

Item: COc1cc2c(cc1Nc1nc(Nc3cccc(F)c3C(N)=O)c3cc[nH]c3n1)N(C(=O)CN1CCN(C(C)C)CC1)CC2 | inhibition: 2.82

The measured inhibition associated with CCCNc1cccc(-n2ncc3c(N/N=C/c4ccncc4)ncnc32)c1 reads 1.11

Record FC(F)(F)CNc1nccc(-c2cnn3ncccc23)n1 . Reported inhibition: 2.87

Entry c1ccc(-c2n[nH]cc2-c2ccnc(-c3ccc(OCCn4ccnc4)cc3)c2)nc1 — recorded inhibition = -0.35

Note to self: inhibition recorded for Cn1c(-c2nonc2N)nc2cnccc21 was 2.9

====

molecular target: Aurora kinase B (Homo sapiens); conditions: at 1 µM;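 further: reported percent inhibition is a mean value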
Below, each entry is listed alongside its reported inhibition.
A number alone suffices; assume %.

COc1cccc(-n2ncc3c(N/N=C/c4ccc(C(=O)NCCN(C)C)cc4)ncnc32)c1 :: 38.6

# inhibition (compound: CS(=O)(=O)CCNCc1ccc(-c2ccc3ncnc(Nc4ccc(OCc5ccccc5)cc4)c3c2)o1 ) is 10

For record COc1cc2c(cc1Nc1nc(Nc3cccc(F)c3C(N)=O)c3cc[nH]c3n1)N(C(=O)CN1CCN(C(C)C)CC1)CC2 the listed inhibition is 2.41

inhibition reported for this compound COc1ccccc1-c1cc(/C=C2\C(=O)Nc3ncc(Br)cc32)cc(Br)c1O : 57.2

CN(c1ccc(NC(=O)NCCN2CCOCC2)cc1)c1ccnc(Nc2ccc(CS(C)(=O)=O)cc2)n1 has a reported inhibition of 76.9

compound O=C1Nc2ccccc2/C1=C1\CCc2cc(O)ccc21 , inhibition observed: 80.5

====

Molecular target: Calcium/calmodulin-dependent protein kinase type IV (Homo sapiens) (UniProt Q16566);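 further: each value is the mean of the measured CAMK4 inhibition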
Sequence (whole entry): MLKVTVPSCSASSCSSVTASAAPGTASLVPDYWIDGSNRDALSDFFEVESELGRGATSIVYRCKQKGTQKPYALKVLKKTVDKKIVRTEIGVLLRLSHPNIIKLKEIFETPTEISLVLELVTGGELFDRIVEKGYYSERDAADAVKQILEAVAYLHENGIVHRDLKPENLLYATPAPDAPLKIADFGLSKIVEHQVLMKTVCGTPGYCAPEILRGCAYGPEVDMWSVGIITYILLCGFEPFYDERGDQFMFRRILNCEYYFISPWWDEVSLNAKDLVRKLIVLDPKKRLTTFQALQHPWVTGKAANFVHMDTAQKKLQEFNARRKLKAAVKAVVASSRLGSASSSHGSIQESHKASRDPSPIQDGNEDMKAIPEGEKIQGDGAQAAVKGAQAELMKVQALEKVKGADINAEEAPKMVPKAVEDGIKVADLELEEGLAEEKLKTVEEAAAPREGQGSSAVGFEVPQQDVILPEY
Conditions: at 1 µM
// inhibition lookup, one value per entry
The response must be a number in % with no trailing unit.

A selection of reference data follows.
O=C(O[C@H]1CN[C@H](C#Cc2cc3ncnc(Nc4ccc(OCc5cccc(F)c5)c(Cl)c4)c3s2)C1)N1CCOCC1 :: -3.95
CN(c1ccc(NC(=O)NCCN2CCOCC2)cc1)c1ccnc(Nc2ccc(CS(C)(=O)=O)cc2)n1 :: -5.39
N#Cc1cccc(Nc2ncc(-c3ccccc3)o2)c1 :: -2.55
COC(=O)Nc1nc2cc(Oc3ccc(NC(=O)Nc4ccccc4)cc3)ccc2[nH]1 :: -2.54

Alright, here's another molecule for you.
Record CC1(C)CC(n2cnc(-c3ccc(F)cc3)c2-c2ccnc(N)n2)CC(C)(C)N1 / Calcium/calmodulin-dependent protein kinase type IV (Homo sapiens) (UniProt Q16566), inhibition recorded as -0.57

====

biological target: RAC-beta serine/threonine-protein kinase (Homo sapiens) (UniProt P31751); conditions: at 0.1 µM;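 further: reported figure is the mean percent inhibition of AKT2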
Sequence (P31751 whole entry): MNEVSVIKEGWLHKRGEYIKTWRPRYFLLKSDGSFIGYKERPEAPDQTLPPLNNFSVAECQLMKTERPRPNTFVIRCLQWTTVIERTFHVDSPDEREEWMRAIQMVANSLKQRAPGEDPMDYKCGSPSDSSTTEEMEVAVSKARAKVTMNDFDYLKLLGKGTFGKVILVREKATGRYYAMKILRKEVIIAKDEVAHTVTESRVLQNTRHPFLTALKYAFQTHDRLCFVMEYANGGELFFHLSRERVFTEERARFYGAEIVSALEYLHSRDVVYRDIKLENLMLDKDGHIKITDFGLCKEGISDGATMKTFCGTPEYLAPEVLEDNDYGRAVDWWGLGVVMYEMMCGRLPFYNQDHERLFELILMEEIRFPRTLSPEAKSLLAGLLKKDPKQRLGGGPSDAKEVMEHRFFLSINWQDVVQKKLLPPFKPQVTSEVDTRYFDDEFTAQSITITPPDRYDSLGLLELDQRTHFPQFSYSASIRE
VALUE TYPE: inhibition (%)
Write it as a number; the unit % goes unstated.

CC(C)c1ccc(-c2cc(-c3c[nH]nc3-c3ccccn3)ccn2)cc1 :: -0.03
N#Cc1ccc2c(-c3ccnc(NC4CC4)n3)c(-c3ccc(F)cc3)nn2c1 :: 0.14
COc1cc(N2CCN(C(C)C)CC2)ccc1Nc1nc(Nc2cccc(F)c2C(=O)O)c2cc[nH]c2n1 :: 1.27
OCCCNc1nccc(-c2c(-c3ccc(F)cc3)nn3cc(C(F)(F)F)ccc23)n1 :: 1.9
CS(=O)(=O)Nc1ccc(-c2cc(-c3ccccc3)cc(C(N)=O)c2N)cc1 :: 0.22

Documented inhibition of Cc1ccc(-c2cc3c(NC(=O)C4CC4)ncnc3o2)cc1 : 1.6

For this compound ( CNC(=O)c1cncc(/C=C/c2ccccc2C)c1 ), measured inhibition is 2.41

inhibition measured on Cc1cc(O)cc(C)c1/C=C/c1cncc(C(=O)OC(C)(C)C)c1 = 1.75

Record summary for COc1ccc(Nc2ncc(-c3ccccc3)o2)cc1OC : reported inhibition = -0.16

// Cc1nnc(-c2cccc(-c3ccc(C(=O)NCC4CC4)cc3)c2)o1 : inhibition value = 2.63

====

target: Aurora kinase A (Homo sapiens) (UniProt O14965); details: at 1 µM;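 further: values are mean percent inhibition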
Sequence (O14965 whole entry): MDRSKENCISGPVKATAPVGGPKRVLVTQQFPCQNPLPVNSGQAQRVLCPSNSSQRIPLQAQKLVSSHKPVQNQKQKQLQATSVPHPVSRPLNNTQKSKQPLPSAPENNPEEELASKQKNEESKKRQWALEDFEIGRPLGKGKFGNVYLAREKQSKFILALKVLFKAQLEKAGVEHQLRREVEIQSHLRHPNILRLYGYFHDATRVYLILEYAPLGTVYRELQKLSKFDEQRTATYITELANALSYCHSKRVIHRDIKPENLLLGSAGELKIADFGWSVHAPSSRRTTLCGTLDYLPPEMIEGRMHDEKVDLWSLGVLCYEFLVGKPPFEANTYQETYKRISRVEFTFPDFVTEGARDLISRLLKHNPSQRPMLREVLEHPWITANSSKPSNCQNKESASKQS
VALUE TYPE: inhibition (%)
Report the figure in % without appending any unit label.

The examples below pair each entry with its known result.
COc1ccc2ncn(-c3cc(O[C@H](C)c4ccccc4C(F)(F)F)c(C(N)=O)s3)c2c1 :: 5.59
CCCNc1cccc(-n2ncc3c(N/N=C/c4ccncc4)ncnc32)c1 :: 70.7
NS(=O)(=O)c1ccc(N/N=C2\C(=O)Nc3ccc(C(=O)NCc4ccncc4)cc32)cc1 :: 54.9
Cc1cc(O)cc(C)c1/C=C/c1cncc(C(N)=O)c1 :: 11.7
CN1CCC(n2cnc(-c3ccc(F)cc3)c2-c2ccnc(NCCO)n2)CC1 :: 9.26

Record FC(F)(F)CNc1nccc(-c2cnn3ncccc23)n1 , field inhibition: 1.83

For this compound ( CNC(=O)c1sc(-n2cnc3cc(OC)c(OC)cc32)cc1OCc1ccccc1C(F)(F)F ), measured inhibition is 4.37

inhibition in this record for c1cnn2ncc(-c3ccnc(NCCCN4CCOCC4)n3)c2c1 : 8.82

response.value for COc1cccc(Nc2nccc(-c3cnn4ncccc34)n2)c1 (field: inhibition) = 86.4

The compound listed as O=C(Nc1n[nH]c2nnc(-c3cccnc3)cc12)C1CC1 has a reported inhibition of 0.07

The compound identified as CCn1c(-c2nonc2N)nc2cncc(C(=O)NCCNC)c21 registered its inhibition at 5.14

Form: compound = Fc1ccc(Nc2nccc(-c3c(-c4ccc(C(F)(F)F)cc4)nn4ncccc34)n2)cc1F ; inhibition = 14.1

Looking up CCN1CCC(C(=O)Nc2n[nH]c3nnc(-c4cccc(F)c4F)cc23)CC1 , I found its inhibition recorded as 0.34

Looking up CNC(=O)c1ncccc1Nc1nc(Nc2cc3c(cc2OC)CCCN3C(=O)CN(C)C)nc2[nH]ccc12 , I found its inhibition recorded as 6.59

Short answer for CCOc1ccc2c(-c3ccnc(Nc4cc(OC)cc(C(F)(F)F)c4)n3)cnn2n1 : inhibition was 13

Per the record, CN(C)CCNC(=O)Nc1ccc(N(C)c2ccnc(Nc3ccc(CS(C)(=O)=O)cc3)n2)cc1 has inhibition of 79

COc1ccc(-c2nn3ncccc3c2-c2ccnc(Nc3ccc(F)c(F)c3)n2)cc1 has a reported inhibition of 28.5

Briefly, inhibition measured for Cc1nnc(-c2cccc(-c3ccc(C(=O)NCC4CC4)cc3)c2)o1 : 7.79

Summary for this compound, COc1cc(N2CCN(C(C)C)CC2)ccc1Nc1nc(Nc2cccc3ncccc23)c2cc[nH]c2n1 : inhibition is 4.47

Lab note: c1ccc(-c2n[nH]cc2-c2ccnc(-c3ccc(OCCn4ccnc4)cc3)c2)nc1 gave inhibition of 11.1

inhibition in this record for OCCCNc1nccc(-c2c(-c3ccc(F)cc3)nn3cc(C(F)(F)F)ccc23)n1 : 7.6

# inhibition of CS(=O)(=O)Nc1ccc(-c2cc(-c3ccccc3)cc(C(N)=O)c2N)cc1 = 1.71

src = ChEMBL document CHEMBL1961873
